Test system: Methicillin-Susceptible Staphylococcus aureus Isolates
Experiment: MIC assay (NCCLS broth dilution), MSSA clinical isolates
Assay type: cell-based
Settings: Staphylococcus aureus, MSSA isolate 994, 22FEB06; read-out: Minimal Inhibitory Concentration
Listing of entries alongside the reported log10 of MIC.
Units before log transform: µg/mL; reported quantity: MIC; transform: log10.

Here is how some molecules turned out for log10 of MIC.
cpd.smiles	target.desc	recorded.metric	numeric.value
CC(=O)NC[C@H]1CN(c2ccc(N3CCOCC3)c(F)c2)C(=O)O1	Methicillin-Susceptible Staphylococcus aureus Isolates	log10 of MIC	0.30
CO[C@@H]1[C@@H](OC(N)=O)[C@@H](O)[C@H](Oc2ccc3c(O)c(NC(=O)c4ccc(O)c(CC=C(C)C)c4)c(=O)oc3c2C)OC1(C)C	Methicillin-Susceptible Staphylococcus aureus Isolates	log10 of MIC	-0.82
CN(C)[C@@H]1C(O)=C(C(N)=O)C(=O)[C@@]2(O)C(O)=C3C(=O)c4c(O)cccc4[C@@](C)(O)[C@H]3C[C@@H]12	Methicillin-Susceptible Staphylococcus aureus Isolates	log10 of MIC	-0.30
Cc1onc(-c2ccccc2)c1C(=O)N[C@@H]1C(=O)N2[C@@H]1SC(C)(C)[C@@H]2C(=O)O	Methicillin-Susceptible Staphylococcus aureus Isolates	log10 of MIC	-0.60

Enquiry: Reported log10 of MIC, molecule CN(C)c1ccc(O)c2c1C[C@H]1C[C@H]3[C@H](N(C)C)C(O)=C(C(N)=O)C(=O)[C@@]3(O)C(O)=C1C2=O : ____
Return: -0.92

* * *

Test system: Methicillin-Resistant Staphylococcus aureus Isolates
Experiment: MIC assay (NCCLS broth dilution), MRSA clinical isolates
Type: cell-based
Conditions: Staphylococcus aureus, MRSA isolate 1010, 22FEB06; read-out: Minimal Inhibitory Concentration
// classify: if (MIC < 2 µg/mL) MET else NOT MET

cpd.smiles	qualitative.label
CO[C@@H]1[C@@H](OC(N)=O)[C@@H](O)[C@H](Oc2ccc3c(O)c(NC(=O)c4ccc(O)c(CC=C(C)C)c4)c(=O)oc3c2C)OC1(C)C	MET

Enquiry: Problem: For the compound CN(C)[C@@H]1C(O)=C(C(N)=O)C(=O)[C@@]2(O)C(O)=C3C(=O)c4c(O)cccc4[C@@](C)(O)[C@H]3C[C@@H]12 , is MIC under 2 µg/mL?
Return: NOT MET

Enquiry: Does this compound meet the criterion MIC < 2 µg/mL? CN(C)c1ccc(O)c2c1C[C@H]1C[C@H]3[C@H](N(C)C)C(O)=C(C(N)=O)C(=O)[C@@]3(O)C(O)=C1C2=O
Return: MET

Enquiry: Consider the compound Cc1onc(-c2ccccc2)c1C(=O)N[C@@H]1C(=O)N2[C@@H]1SC(C)(C)[C@@H]2C(=O)O . Is its MIC strictly less than 2 µg/mL?
Return: NOT MET

* * *

Test system: Methicillin-Resistant Staphylococcus aureus Isolates
Assay: MIC assay (NCCLS broth dilution), MRSA clinical isolates
Format: cell-based
Conditions: Staphylococcus aureus, MRSA isolate 1136, 22FEB06; read-out: Minimal Inhibitory Concentration
Define the label as Met when MIC is strictly less than 0.5 µg/mL and as Not met in all remaining cases.

cpd.smiles	target.desc	qualitative.label
CN(C)c1ccc(O)c2c1C[C@H]1C[C@H]3[C@H](N(C)C)C(O)=C(C(N)=O)C(=O)[C@@]3(O)C(O)=C1C2=O	Methicillin-Resistant Staphylococcus aureus Isolates	Met

Enquiry: Does CC(=O)NC[C@H]1CN(c2ccc(N3CCOCC3)c(F)c2)C(=O)O1 have MIC strictly under 0.5 µg/mL?
Return: Not met

Enquiry: hey, is MIC for Cc1onc(-c2ccccc2)c1C(=O)N[C@@H]1C(=O)N2[C@@H]1SC(C)(C)[C@@H]2C(=O)O lower than 0.5 µg/mL or not?
Return: Not met

Enquiry: Given CO[C@@H]1[C@@H](OC(N)=O)[C@@H](O)[C@H](Oc2ccc3c(O)c(NC(=O)c4ccc(O)c(CC=C(C)C)c4)c(=O)oc3c2C)OC1(C)C , is recorded MIC strictly lower than 0.5 µg/mL?
Return: Met

* * *

Test system: Methicillin-Resistant Staphylococcus aureus Isolates
Experiment: MIC assay (NCCLS broth dilution), MRSA clinical isolates
Format: cell-based
Conditions: Staphylococcus aureus, MRSA isolate 774, 24FEB06; read-out: Minimal Inhibitory Concentration
recorded.metric: log10 of MIC (log10 of the value in µg/mL)
Short version: log10 scale, MIC, µg/mL.

compound	target.desc	log10 of MIC
CN(C)[C@@H]1C(O)=C(C(N)=O)C(=O)[C@@]2(O)C(O)=C3C(=O)c4c(O)cccc4[C@@](C)(O)[C@H]3C[C@@H]12 [TE, tetracycline]	Methicillin-Resistant Staphylococcus aureus Isolates	-0.30
CC(=O)NC[C@H]1CN(c2ccc(N3CCOCC3)c(F)c2)C(=O)O1 [LZD, linezolid]	Methicillin-Resistant Staphylococcus aureus Isolates	0.30
CO[C@@H]1[C@@H](OC(N)=O)[C@@H](O)[C@H](Oc2ccc3c(O)c(NC(=O)c4ccc(O)c(CC=C(C)C)c4)c(=O)oc3c2C)OC1(C)C [NB, novobiocin]	Methicillin-Resistant Staphylococcus aureus Isolates	-0.51
CN(C)c1ccc(O)c2c1C[C@H]1C[C@H]3[C@H](N(C)C)C(O)=C(C(N)=O)C(=O)[C@@]3(O)C(O)=C1C2=O [MI, minocycline]	Methicillin-Resistant Staphylococcus aureus Isolates	-0.92

# ---- query compound ----
Enquiry: Value lookup for log10 of MIC; key = Cc1onc(-c2ccccc2)c1C(=O)N[C@@H]1C(=O)N2[C@@H]1SC(C)(C)[C@@H]2C(=O)O [OX, oxacillin]
Return: 1.51

* * *

Test system: Methicillin-Resistant Staphylococcus aureus Isolates
Experiment: MIC assay (NCCLS broth dilution), MRSA clinical isolates
Assay type: cell-based
Details: Staphylococcus aureus, MRSA isolate 886, 24FEB06; read-out: Minimal Inhibitory Concentration
recorded.metric: log10 of MIC (log10 of the value in µg/mL)
Transform log10 | Measure MIC | Unit µg/mL

Here is how some molecules turned out for log10 of MIC.
molecule	log10 of MIC
CN(C)[C@@H]1C(O)=C(C(N)=O)C(=O)[C@@]2(O)C(O)=C3C(=O)c4c(O)cccc4[C@@](C)(O)[C@H]3C[C@@H]12 [TE, tetracycline]	-0.30
CN(C)c1ccc(O)c2c1C[C@H]1C[C@H]3[C@H](N(C)C)C(O)=C(C(N)=O)C(=O)[C@@]3(O)C(O)=C1C2=O [MI, minocycline]	-0.92
Cc1onc(-c2ccccc2)c1C(=O)N[C@@H]1C(=O)N2[C@@H]1SC(C)(C)[C@@H]2C(=O)O [OX, oxacillin]	1.51
CO[C@@H]1[C@@H](OC(N)=O)[C@@H](O)[C@H](Oc2ccc3c(O)c(NC(=O)c4ccc(O)c(CC=C(C)C)c4)c(=O)oc3c2C)OC1(C)C [NB, novobiocin]	-0.82

Moving on to the next molecule.
Enquiry: Consider the molecule CC(=O)NC[C@H]1CN(c2ccc(N3CCOCC3)c(F)c2)C(=O)O1 [LZD, linezolid] and give its measured log10 of MIC.
Return: 0.30

* * *

Tested on: Vancomycin-intermediate Staphylococcus epidermidis Isolates
Assay: MIC assay (NCCLS broth dilution), VISE isolates
Format: cell-based
Conditions: Staphylococcus epidermidis, VISE isolate 2023, 03MAR06; read-out: Minimal Inhibitory Concentration
Experimental: Antibiotics: novobiocin, tetracycline, minocycline, oxacillin, and vancomycin were all purchased from Sigma-Aldrich. Linezolid was obtained from Pfizer, Inc. Novobiocin/tetracycline and novobiocin/minocycline were tested in a 2.5:1 ratio to mimic the serum levels. (Vavra, J. J., 1967, Development of resistance to novobiocin, tetracycline, and novobiocin-tetracycline combinations in Staphylococcus aureus populations, J. Bacteriol 93(3):801). […]
recorded.metric: MIC

Please review the entries below; each comes with its answer.
molecule	result
CN(C)c1ccc(O)c2c1C[C@H]1C[C@H]3[C@H](N(C)C)C(O)=C(C(N)=O)C(=O)[C@@]3(O)C(O)=C1C2=O [MI, minocycline]	0.06 mg/L
CN(C)[C@@H]1C(O)=C(C(N)=O)C(=O)[C@@]2(O)C(O)=C3C(=O)c4c(O)cccc4[C@@](C)(O)[C@H]3C[C@@H]12 [TE, tetracycline]	0.5 mg/L
CO[C@@H]1[C@@H](OC(N)=O)[C@@H](O)[C@H](Oc2ccc3c(O)c(NC(=O)c4ccc(O)c(CC=C(C)C)c4)c(=O)oc3c2C)OC1(C)C [NB, novobiocin]	< 0.04 mg/L

Enquiry: Name the reported MIC value associated with the molecule Cc1onc(-c2ccccc2)c1C(=O)N[C@@H]1C(=O)N2[C@@H]1SC(C)(C)[C@@H]2C(=O)O [OX, oxacillin]
Return: 2 mg/L

Enquiry: # get_value(readout='MIC', item= CC(=O)NC[C@H]1CN(c2ccc(N3CCOCC3)c(F)c2)C(=O)O1 [LZD, linezolid] )
Return: 2 mg/L

* * *

Test system: Methicillin-Susceptible Staphylococcus aureus Isolates
Test: MIC assay (NCCLS broth dilution), MSSA clinical isolates
Format: cell-based
Conditions: Staphylococcus aureus, MSSA isolate 785, 22FEB06; read-out: Minimal Inhibitory Concentration
recorded.metric: MIC (µg/mL)
API: value field is a number in µg/mL; no unit string.

Use these answered entries as a reference point.
cpd.smiles	unit.label	MIC
Cc1onc(-c2ccccc2)c1C(=O)N[C@@H]1C(=O)N2[C@@H]1SC(C)(C)[C@@H]2C(=O)O	µg/mL	0.12
CC(=O)NC[C@H]1CN(c2ccc(N3CCOCC3)c(F)c2)C(=O)O1	µg/mL	2
CN(C)c1ccc(O)c2c1C[C@H]1C[C@H]3[C@H](N(C)C)C(O)=C(C(N)=O)C(=O)[C@@]3(O)C(O)=C1C2=O	µg/mL	0.12

Enquiry: Fill blank: measured MIC of the compound CN(C)[C@@H]1C(O)=C(C(N)=O)C(=O)[C@@]2(O)C(O)=C3C(=O)c4c(O)cccc4[C@@](C)(O)[C@H]3C[C@@H]12 is ____.
Return: 0.5

Enquiry: Could you share which MIC value was measured for CO[C@@H]1[C@@H](OC(N)=O)[C@@H](O)[C@H](Oc2ccc3c(O)c(NC(=O)c4ccc(O)c(CC=C(C)C)c4)c(=O)oc3c2C)OC1(C)C ?
Return: 0.15
